# TARGET_ENTITY: Adenosine receptor A3 (Homo sapiens)
# Sequence (P0DMS8 whole entry): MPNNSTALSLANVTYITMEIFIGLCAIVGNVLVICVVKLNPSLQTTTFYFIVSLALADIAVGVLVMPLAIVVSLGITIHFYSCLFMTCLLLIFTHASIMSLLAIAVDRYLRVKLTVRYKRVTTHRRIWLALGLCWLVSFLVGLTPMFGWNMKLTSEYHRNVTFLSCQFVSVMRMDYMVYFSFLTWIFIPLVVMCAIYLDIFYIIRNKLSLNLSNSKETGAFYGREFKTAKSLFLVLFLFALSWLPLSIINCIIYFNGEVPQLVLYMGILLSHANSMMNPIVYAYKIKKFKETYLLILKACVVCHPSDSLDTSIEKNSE
# PROCEDURE_DETAILS: Activity at human adenosine A3 receptor assessed as inhibition of forskolin-stimulated cAMP accumulation in CHO cells
MEASURED_ATTRIBUTE: pEC50
Field pEC50 (float): negative decimal logarithm of the concentration in molar.

Sample CCNC(=O)[C@H]1O[C@@H](n2cnc3c(NCCCCNC(=O)CCCCCNC(=O)COc4ccc(/C=C/C5=[N+]6C(=Cc7ccc(-c8cccs8)n7[B-]6(F)F)C=C5)cc4)ncnc32)[C@H](O)[C@@H]1O — what was its pEC50?
8.57

---

# TARGET_ENTITY: Adenosine receptor A2b (Homo sapiens)
# Sequence (P29275 whole entry): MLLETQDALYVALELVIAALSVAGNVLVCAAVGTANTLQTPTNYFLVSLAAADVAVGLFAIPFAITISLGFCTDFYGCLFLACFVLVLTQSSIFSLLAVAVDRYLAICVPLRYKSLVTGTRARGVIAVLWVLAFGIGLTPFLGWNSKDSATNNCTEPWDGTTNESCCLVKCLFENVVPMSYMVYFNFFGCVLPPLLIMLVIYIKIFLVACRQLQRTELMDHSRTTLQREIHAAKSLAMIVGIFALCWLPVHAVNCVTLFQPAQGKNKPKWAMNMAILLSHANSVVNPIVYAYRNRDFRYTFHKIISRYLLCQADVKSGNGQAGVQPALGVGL
# PROCEDURE_DETAILS: Activity at human adenosine A2B receptor assessed as stimulation of [3H]cAMP accumulation in CHO cells
MEASURED_ATTRIBUTE: EC50 (nM)
The figure you give is taken to be in nM; do not add the unit.

Sample CCNC(=O)[C@H]1O[C@@H](n2cnc3c(NCCCCNC(=O)CCCCCNC(=O)COc4ccc(/C=C/C5=[N+]6C(=Cc7ccc(-c8cccs8)n7[B-]6(F)F)C=C5)cc4)ncnc32)[C@H](O)[C@@H]1O — what was its EC50?
2040

---

# TARGET_ENTITY: Adenosine receptor A1 (Homo sapiens, UniProt P30542)
# Sequence (P30542 whole entry): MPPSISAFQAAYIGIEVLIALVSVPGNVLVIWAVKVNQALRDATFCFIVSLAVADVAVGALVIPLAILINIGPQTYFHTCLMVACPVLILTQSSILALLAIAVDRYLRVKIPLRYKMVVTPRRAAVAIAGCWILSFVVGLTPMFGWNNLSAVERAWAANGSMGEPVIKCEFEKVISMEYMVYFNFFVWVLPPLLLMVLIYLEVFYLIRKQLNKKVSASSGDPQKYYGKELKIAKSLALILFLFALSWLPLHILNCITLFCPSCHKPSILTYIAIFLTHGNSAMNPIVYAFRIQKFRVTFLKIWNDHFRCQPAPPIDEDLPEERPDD
# PROCEDURE_DETAILS: Agonist activity at adenosine A1 receptor assessed as inhibition of forskolin-stimulated [3H]cAMP accumulation in CHO cells
# Type: functional, cell-based
pEC50: recorded values
Field pEC50 (float): negative decimal logarithm of the concentration in molar.

Recorded pEC50, per entry:
[[record]]
line_notation = "CCNC(=O)[C@H]1O[C@@H](n2cnc3c(NCCCNC(=O)CCCCCNC(=O)COc4ccc(/C=C/C5=[N+]6C(=Cc7ccc(-c8cccs8)n7[B-]6(F)F)C=C5)cc4)ncnc32)[C@H](O)[C@@H]1O"
target_entity = "Adenosine receptor A1 (Homo sapiens, UniProt P30542)"
numeric_readout = 9.16

[[record]]
line_notation = "CCNC(=O)[C@H]1O[C@@H](n2cnc3c(NCCCCCNC(=O)CCCCCNC(=O)COc4ccc(/C=C/C5=[N+]6C(=Cc7ccc(-c8cccs8)n7[B-]6(F)F)C=C5)cc4)ncnc32)[C@H](O)[C@@H]1O"
target_entity = "Adenosine receptor A1 (Homo sapiens, UniProt P30542)"
numeric_readout = 9.15

[[record]]
line_notation = "O=C(CCCCCNC(=O)COc1ccc(/C=C/C2=[N+]3C(=Cc4ccc(-c5cccs5)n4[B-]3(F)F)C=C2)cc1)NCCCCNc1ncnc2c1ncn2[C@@H]1O[C@H](CO)[C@@H](O)[C@H]1O"
target_entity = "Adenosine receptor A1 (Homo sapiens, UniProt P30542)"
numeric_readout = 8.29

[[record]]
line_notation = "CCNC(=O)[C@H]1O[C@@H](n2cnc3c(NCCCCNC(=O)CCCCCNC(=O)COc4ccc(/C=C/C5=[N+]6C(=Cc7ccc(-c8cccs8)n7[B-]6(F)F)C=C5)cc4)ncnc32)[C@H](O)[C@@H]1O"
target_entity = "Adenosine receptor A1 (Homo sapiens, UniProt P30542)"
numeric_readout = 8.47


Sample CCNC(=O)[C@H]1O[C@@H](n2cnc3c(NCCCCCCCCNC(=O)CCCCCNC(=O)COc4ccc(/C=C/C5=[N+]6C(=Cc7ccc(-c8cccs8)n7[B-]6(F)F)C=C5)cc4)ncnc32)[C@H](O)[C@@H]1O — what was its pEC50?
7.92

---

pKd: recorded values
# TARGET_ENTITY: Adenosine receptor A1 (Homo sapiens, UniProt P30542)
# PROCEDURE_DETAILS: Displacement of [3H]DPCPX from human adenosine A1 receptor in CHO cells
Field pKd (float): negative decimal logarithm of the concentration in molar.

Sample CCNC(=O)[C@H]1O[C@@H](n2cnc3c(NCCCNC(=O)CCCCCNC(=O)COc4ccc(/C=C/C5=[N+]6C(=Cc7ccc(-c8cccs8)n7[B-]6(F)F)C=C5)cc4)ncnc32)[C@H](O)[C@@H]1O — what was its pKd?
6.61

Sample CCNC(=O)[C@H]1O[C@@H](n2cnc3c(NCCCCNC(=O)CCCCCNC(=O)COc4ccc(/C=C/C5=[N+]6C(=Cc7ccc(-c8cccs8)n7[B-]6(F)F)C=C5)cc4)ncnc32)[C@H](O)[C@@H]1O — what was its pKd?
6.80

Sample O=C(CCCCCNC(=O)COc1ccc(/C=C/C2=[N+]3C(=Cc4ccc(-c5cccs5)n4[B-]3(F)F)C=C2)cc1)NCCCCNc1ncnc2c1ncn2[C@@H]1O[C@H](CO)[C@@H](O)[C@H]1O — what was its pKd?
6.65

---

inhibition: recorded values
# TARGET_ENTITY: Adenosine receptor A1 (Homo sapiens) (UniProt P30542)
# PROCEDURE_DETAILS: Displacement of [3H]DPCPX from human adenosine A1 receptor in CHO cells
# Assay type: cell-based
# EXPERIMENTAL_PARAMETERS: concentration not given here
The figure you give is taken to be in %; do not add the unit.

Recorded inhibition, per entry:
[[record]]
line_notation = "CCNC(=O)[C@H]1O[C@@H](n2cnc3c(NCCCCNC(=O)CCCCCNC(=O)COc4ccc(/C=C/C5=[N+]6C(=Cc7ccc(-c8cccs8)n7[B-]6(F)F)C=C5)cc4)ncnc32)[C@H](O)[C@@H]1O"
numeric_readout = 49.3

[[record]]
line_notation = "CCNC(=O)[C@H]1O[C@@H](n2cnc3c(N)ncnc32)[C@H](O)[C@@H]1O"
numeric_readout = 83.3


Sample CCNC(=O)[C@H]1O[C@@H](n2cnc3c(NCCCNC(=O)CCCCCNC(=O)COc4ccc(/C=C/C5=[N+]6C(=Cc7ccc(-c8cccs8)n7[B-]6(F)F)C=C5)cc4)ncnc32)[C@H](O)[C@@H]1O — what was its inhibition?
50.9

Sample O=C(CCCCCNC(=O)COc1ccc(/C=C/C2=[N+]3C(=Cc4ccc(-c5cccs5)n4[B-]3(F)F)C=C2)cc1)NCCCCNc1ncnc2c1ncn2[C@@H]1O[C@H](CO)[C@@H](O)[C@H]1O — what was its inhibition?
48.1
